Each item that follows carries a reported inhibition at 100 µM.
systemTested: olfactory receptor OR5K1 (Homo sapiens)
Construct: Flag-Rho tag (N); expressed in transfected cells; host or cells: HEK293
Sequence (Q8NHB7 whole entry): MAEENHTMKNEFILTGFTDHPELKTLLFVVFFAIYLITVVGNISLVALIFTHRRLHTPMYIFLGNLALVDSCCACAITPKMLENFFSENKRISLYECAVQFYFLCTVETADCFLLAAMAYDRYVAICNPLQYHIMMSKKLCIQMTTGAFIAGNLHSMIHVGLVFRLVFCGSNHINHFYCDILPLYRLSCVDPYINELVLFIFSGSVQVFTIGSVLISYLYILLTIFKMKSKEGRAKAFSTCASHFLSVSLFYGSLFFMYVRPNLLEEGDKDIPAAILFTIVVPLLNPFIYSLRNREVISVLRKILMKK
assayRemarks: Antagonistic activity against the response of OR5K1 to Furaneol (luciferase reporter gene assay, HEK293 cells)
Assay type: cell-based
conditions: Furaneol 3 mM, test substance 100 μM; OR5K1-expressing HEK293 cells; read-out: rate of inhibition of the response of OR5K1 to Furaneol

Solved entries:
Exam item: What value of inhibition at 100 µM has been recorded for this entry: CC(=O)O[C@]1(C)CC[C@@]23C[C@@H]1C(C)(C)[C@@H]2CC[C@H]3C [Cedryl acetate]
Marked response: ≥ 50%

Exam item: What value of inhibition at 100 µM has been reported for the following molecule? CC(=O)c1cc2c(cc1C)C(C)(C)C(C)CC2(C)C [Tonalid(R)]
Marked response: ≥ 75%

Exam item: # lookup: inhibition at 100 µM of CC(=O)C1(C)CC2=C(CCCC2(C)C)CC1C (stereo not drawn)
Marked response: ≥ 75%

Further cases:
Exam item: Given the entry Cc1ccc(C(C)C)c(O)c1 , report its measured inhibition at 100 µM.
Marked response: ≥ 75%

Exam item: Given the molecule CC1C/C=C/CCCCCCCCCC(=O)C1 [Muscenone(R) Delta, (5E)-3-Methylcyclopentadec-5-en-1-one] , what is its reported inhibition at 100 µM?
Marked response: ≥ 75%

Exam item: inhibition at 100 µM lookup needed for CC1(CO)CC1CC1CC2CC2(C)C1(C)C [Javanol(R)] , thanks.
Marked response: ≥ 40%

Exam item: Would you kindly share the measured inhibition at 100 µM for CCC(=CCC1CC=C(C)C1(C)C)CO (stereo not drawn) ?
Marked response: ≥ 50%
